# Test system: Staphylococcus aureus
# measurement-description: Antibacterial activity against methicillin-resistant Staphylococcus aureus NRS-271 assessed as inhibition of bacterial growth incubated for 18 hrs by two fold serial dilution assay
# Assay type: functional
Measured MIC, listed per entry.
Write the answer as a number in µg/mL, unit excluded.

# compound, target-desc, readout-number
measured = [
    ("CC1(C)c2nc3ccccc3nc2C[C@]2(C)[C@H]3C[C@@H](O)[C@@H]4[C@@H]([C@@](C)(O)CCC(N)=O)CC[C@@]4(C)[C@]3(C)CC[C@@H]12", "Staphylococcus aureus", 4),
    ("CC1(C)c2nc3ccccc3nc2C[C@]2(C)[C@H]3C[C@@H](O)[C@@H]4[C@@H]([C@@](C)(O)CCC(=O)Nc5nccs5)CC[C@@]4(C)[C@]3(C)CC[C@@H]12", "Staphylococcus aureus", 1),
    ("CC1(C)c2nc3ccccc3nc2C[C@]2(C)[C@H]3C[C@@H](O)[C@@H]4[C@@H]([C@@](C)(O)CCC(=O)Nc5cccnc5)CC[C@@]4(C)[C@]3(C)CC[C@@H]12", "Staphylococcus aureus", 16),
]

Specify MIC for C[C@H]1COc2c(N3CCN(C)CC3)c(F)cc3c(=O)c(C(=O)O)cn1c23 [LEVOFLOXACIN ANHYDROUS] , system Staphylococcus aureus.
4

# lookup: Staphylococcus aureus MIC, key = CC1(C)c2nc3ccccc3nc2C[C@]2(C)[C@H]3C[C@@H](O)[C@@H]4[C@@H]([C@@](C)(O)CCC(=O)Nc5cnccn5)CC[C@@]4(C)[C@]3(C)CC[C@@H]12
8

----------
# Test system: Staphylococcus aureus
# measurement-description: Antibacterial activity against methicillin-resistant Staphylococcus aureus NRS-1 assessed as inhibition of bacterial growth incubated for 18 hrs by two fold serial dilution assay
# Assay type: functional
Here, each record is paired with measured MIC data.

Give the reported value of MIC for this record: CC1(C)c2nc3ccccc3nc2C[C@]2(C)[C@H]3C[C@@H](O)[C@@H]4[C@@H]([C@@](C)(O)CCC(=O)Nc5cccnc5)CC[C@@]4(C)[C@]3(C)CC[C@@H]12
> 64 µg/mL

Tell me MIC reported for CC1(C)c2nc3ccccc3nc2C[C@]2(C)[C@H]3C[C@@H](O)[C@@H]4[C@@H]([C@@](C)(O)CCC(=O)Nc5cnccn5)CC[C@@]4(C)[C@]3(C)CC[C@@H]12
> 64 µg/mL

Quick one: give measured MIC for CN(C)C(=O)CC[C@](C)(O)[C@H]1CC[C@]2(C)[C@@H]1[C@H](O)C[C@@H]1[C@@]3(C)Cc4nc5ccccc5nc4C(C)(C)[C@@H]3CC[C@]12C
4 µg/mL

Identify MIC associated with the compound C[C@H]1COc2c(N3CCN(C)CC3)c(F)cc3c(=O)c(C(=O)O)cn1c23 [LEVOFLOXACIN ANHYDROUS]
16 µg/mL

Read the entry CC1(C)c2nc3ccccc3nc2C[C@]2(C)[C@H]3C[C@@H](O)[C@@H]4[C@@H]([C@@](C)(O)CCC(=O)Nc5nccs5)CC[C@@]4(C)[C@]3(C)CC[C@@H]12 and write its reported MIC.
1 µg/mL

----------
# System: Staphylococcus aureus
# measurement-description: Antibacterial activity against methicillin-resistant Staphylococcus aureus NRS-1 assessed as inhibition of bacterial growth incubated for 18 hrs by two fold serial dilution assay
# Format: functional
Here the recorded MIC is given for each entry.

Hello, please tell me recorded MIC for this one: CCNC(=O)CC[C@](C)(O)[C@H]1CC[C@]2(C)[C@@H]1[C@H](O)C[C@@H]1[C@@]3(C)Cc4nc5ccccc5nc4C(C)(C)[C@@H]3CC[C@]12C
> 64 µg/mL

Reference for the values: ChEMBL document CHEMBL5614428
